Biological target: rat TIMP-1 (rat, UniProt P30120 24-217)
Sequence (P30120 24-217 limits assumed): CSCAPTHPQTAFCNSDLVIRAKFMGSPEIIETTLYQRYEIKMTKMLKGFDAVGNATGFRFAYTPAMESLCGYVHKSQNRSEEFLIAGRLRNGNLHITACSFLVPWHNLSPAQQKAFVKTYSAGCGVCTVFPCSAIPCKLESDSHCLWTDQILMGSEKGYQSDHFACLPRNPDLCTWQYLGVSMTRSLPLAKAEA
Assay: SPR (BIAcore), TIMP-1 coupled to chip, monovalent Fab
# Lookup of reported pKd keyed by entry
# reply with the number alone; pKd is -log10 of concentration in mol/L

[
  {
    "BINDER": "MS-BW-54 (Fab, V domains shown, Fab, FLAG + Strep-tag II; not tied by name) VH: QVQLVQSGAEVKKPGESLKISCKGSGYSFTSYWIGWVRQMPGKGLEWMGIIYPGDSDTRYSPSFQGQVTISADKSISTAYLQWSSLKASDTAMYYCARYYGFEYDLLFDNWGQGTLVTVSS VL: DIALTQPASVSGSPGQSITISCTGTSSDVGGYNYVSWYQQHPGKAPKLMIYDVSNRPSGVSNRFSGSKSGNTASLTISGLQAEDEADYYCQSYDISGYPVFGGGTKLTVLG",
    "pKd": 8.05
  }
]

Turning now to a further record.
**Q:** Query: pKd; subject: MS-BW-22 (Fab, V domains shown, Fab, FLAG + Strep-tag II; not tied by name) VH: QVQLVQSGAEVKKPGESLKISCKGSGYSFTSYWIGWVRQMPGKGLEWMGIIYPGDSDTRYSPSFQGQVTISADKSISTAYLQWSSLKASDTAMYYCARFRAYGDDFYFDVWGQGTLVTVSS VL: DIALTQPASVSGSPGQSITISCTGTSSDVGGYNYVSWYQQHPGKAPKLMIYDVSNRPSGVSNRFSGSKSGNTASLTISGLQAEDEADYYCQSWDNLKMPVVFGGGTKLTVLG
**A:** 7.46

// data source = patent US20140086935A1
